B1: DYRK1B (parent)
chain: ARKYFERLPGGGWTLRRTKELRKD

- Variants of: B1
- Experimental protocol: protein stability index of a GFP-peptide fusion (GPS, HEK-293T) (PSI 1-6); higher = more stable;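 also: lentivirally expressed fusions sorted by FACS into six bins by GFP to DsRed ratio, PSI derived from sequencing read proportions per bin multiplied by bin number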
- Details: c terminus: a fixed tail appended
Could you label it Satisfied if measured protein stability index is 3 or higher, and Not satisfied otherwise?

{"Residue string": "ARKYFERLPGGGWTLRRTDELRKD [K19D]", "Discrete label": "Satisfied"}
{"Residue string": "ARKIFERLPGGGWTLRRTKELRKD [Y4I]", "Discrete label": "Not satisfied"}
{"Residue string": "YRKYFERLPGGGWTLRRTKELRKD [A1Y]", "Discrete label": "Not satisfied"}
{"Residue string": "ARKYFERMPGGGWTLRRTKELRKD [L8M]", "Discrete label": "Satisfied"}
{"Residue string": "GRKYFERLPGGGWTLRRTKELRKD [A1G]", "Discrete label": "Satisfied"}
{"Residue string": "ARKYFFRLPGGGWTLRRTKELRKD [E6F]", "Discrete label": "Satisfied"}
{"Residue string": "AHKYFERLPGGGWTLRRTKELRKD [R2H]", "Discrete label": "Not satisfied"}
{"Residue string": "SRKYFERLPGGGWTLRRTKELRKD [A1S]", "Discrete label": "Satisfied"}
{"Residue string": "ARKYFERLPGGGWTLRCTKELRKD [R17C]", "Discrete label": "Not satisfied"}
{"Residue string": "ARKYFERLEGGGWTLRRTKELRKD [P9E]", "Discrete label": "Satisfied"}
{"Residue string": "ARKYSERLPGGGWTLRRTKELRKD [F5S]", "Discrete label": "Satisfied"}
{"Residue string": "ARKYFEILPGGGWTLRRTKELRKD [R7I]", "Discrete label": "Not satisfied"}
{"Residue string": "ARKYFTRLPGGGWTLRRTKELRKD [E6T]", "Discrete label": "Satisfied"}
{"Residue string": "ARKYFERLQGGGWTLRRTKELRKD [P9Q]", "Discrete label": "Satisfied"}
{"Residue string": "ARKYFESLPGGGWTLRRTKELRKD [R7S]", "Discrete label": "Satisfied"}
{"Residue string": "ARKYFERLPGGGFTLRRTKELRKD [W13F]", "Discrete label": "Satisfied"}
{"Residue string": "ARKYFERLPGGGWTLRRTKEVRKD [L21V]", "Discrete label": "Satisfied"}
{"Residue string": "ARKYFERLPGGGWTLRRTKWLRKD [E20W]", "Discrete label": "Not satisfied"}
{"Residue string": "ARKYFERLPGTGWTLRRTKELRKD [G11T]", "Discrete label": "Satisfied"}
{"Residue string": "ARKYFERLPGGGWTLRRTKELRTD [K23T]", "Discrete label": "Satisfied"}
{"Residue string": "ARKYFERPPGGGWTLRRTKELRKD [L8P]", "Discrete label": "Satisfied"}
{"Residue string": "ARKYFERSPGGGWTLRRTKELRKD [L8S]", "Discrete label": "Satisfied"}
{"Residue string": "ARKYFWRLPGGGWTLRRTKELRKD [E6W]", "Discrete label": "Not satisfied"}
{"Residue string": "ARKYFERLPGGGWTLRRMKELRKD [T18M]", "Discrete label": "Satisfied"}
{"Residue string": "ARKYFERLYGGGWTLRRTKELRKD [P9Y]", "Discrete label": "Not satisfied"}
{"Residue string": "ATKYFERLPGGGWTLRRTKELRKD [R2T]", "Discrete label": "Satisfied"}
{"Residue string": "ARKYFERLPGGGWTLRRLKELRKD [T18L]", "Discrete label": "Not satisfied"}
{"Residue string": "ARKYFERLPGGGWTLRRTKELNKD [R22N]", "Discrete label": "Satisfied"}
{"Residue string": "ARKYFERLPGGGWTLRRTKELLKD [R22L]", "Discrete label": "Not satisfied"}
{"Residue string": "ARKYFMRLPGGGWTLRRTKELRKD [E6M]", "Discrete label": "Not satisfied"}
{"Residue string": "ARKYFERLPGGGWTLRRTYELRKD [K19Y]", "Discrete label": "Satisfied"}
{"Residue string": "ARKTFERLPGGGWTLRRTKELRKD [Y4T]", "Discrete label": "Satisfied"}
{"Residue string": "ARKYFERLPFGGWTLRRTKELRKD [G10F]", "Discrete label": "Not satisfied"}
{"Residue string": "AIKYFERLPGGGWTLRRTKELRKD [R2I]", "Discrete label": "Not satisfied"}
{"Residue string": "ARKYFERCPGGGWTLRRTKELRKD [L8C]", "Discrete label": "Satisfied"}
{"Residue string": "ARKYFERLPGGGWTLRRTWELRKD [K19W]", "Discrete label": "Not satisfied"}
{"Residue string": "ARKYFERLPGGGWTLRRTKELMKD [R22M]", "Discrete label": "Satisfied"}
{"Residue string": "ARKYFERLPGGGWTLRRTKELRDD [K23D]", "Discrete label": "Not satisfied"}
{"Residue string": "ARKYFERLPGGGWTLRRTKELRPD [K23P]", "Discrete label": "Satisfied"}
{"Residue string": "ARKYFEVLPGGGWTLRRTKELRKD [R7V]", "Discrete label": "Satisfied"}
{"Residue string": "ARKYFARLPGGGWTLRRTKELRKD [E6A]", "Discrete label": "Satisfied"}
{"Residue string": "ARKYFERLPGGGWTLRRTKEERKD [L21E]", "Discrete label": "Satisfied"}
{"Residue string": "ARGYFERLPGGGWTLRRTKELRKD [K3G]", "Discrete label": "Satisfied"}
